- Test system: c-Src
- EXPERIMENT_DESCRIPTION: phosphorylation enrichment, bacterial display (enrichment ratio); higher = better substrate or ligand; peptides without Tyr show the background;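 also: 11-residue human phosphosite peptides and single-mutation variants displayed on the E. coli surface, counted by deep sequencing, each peptide's frequency after selection divided by its frequency in the unselected input library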;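 also: frequency after pTyr selection over input frequency; kinase dosed for 20-30% of maximal phosphorylation in three min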
Where phosphorylation enrichment equals or exceeds 0.5, the correct label is Criterion met; where it does not, the label is Criterion not met.

Solved cases (10 shown):
# SEQUENCE_ENTRY, CLASS_NAME
records = [
    ("GHPFAYDWISI [BEST1_Y227_L224P_YF]", "Criterion met"),
    ("FGAHNHHPLPV [OAT_Y55_Y55H_YF]", "Criterion not met"),
    ("PPPPAYDDVAQ [TNK2_Y635]", "Criterion met"),
    ("YDDGKYVYVVT [RPS6KA3_Y488]", "Criterion met"),
    ("EAGKVYLKAAM [CBFB_Y96_P100A]", "Criterion not met"),
    ("PSTYRYERGSR [INPPL1_Y663_P659S]", "Criterion met"),
    ("CDLTDYLMKIL [ACTA1_Y190_R185C]", "Criterion not met"),
    ("YRVAGYETQGG [TIA1_Y383]", "Criterion not met"),
    ("FRDALYKFIVD [PHEX_Y250_M253I_YF]", "Criterion met"),
    ("GVIKEYQIRQV [USH2A_Y3623]", "Criterion not met"),
]

-- ask State whether the measured phosphorylation enrichment reaches 0.5, counting equality as reaching it, for FDKEFYSVHNK [MET_Y1235_YF]
-- reply Criterion met

-- ask Try this sequence next: QYPDIYAREEV [CRX_Y67_V66I]
-- reply Criterion met

====

- TESTED_ON: EPHB2 (UniProt P29323)
- Sequence (P29323 whole entry, looked up): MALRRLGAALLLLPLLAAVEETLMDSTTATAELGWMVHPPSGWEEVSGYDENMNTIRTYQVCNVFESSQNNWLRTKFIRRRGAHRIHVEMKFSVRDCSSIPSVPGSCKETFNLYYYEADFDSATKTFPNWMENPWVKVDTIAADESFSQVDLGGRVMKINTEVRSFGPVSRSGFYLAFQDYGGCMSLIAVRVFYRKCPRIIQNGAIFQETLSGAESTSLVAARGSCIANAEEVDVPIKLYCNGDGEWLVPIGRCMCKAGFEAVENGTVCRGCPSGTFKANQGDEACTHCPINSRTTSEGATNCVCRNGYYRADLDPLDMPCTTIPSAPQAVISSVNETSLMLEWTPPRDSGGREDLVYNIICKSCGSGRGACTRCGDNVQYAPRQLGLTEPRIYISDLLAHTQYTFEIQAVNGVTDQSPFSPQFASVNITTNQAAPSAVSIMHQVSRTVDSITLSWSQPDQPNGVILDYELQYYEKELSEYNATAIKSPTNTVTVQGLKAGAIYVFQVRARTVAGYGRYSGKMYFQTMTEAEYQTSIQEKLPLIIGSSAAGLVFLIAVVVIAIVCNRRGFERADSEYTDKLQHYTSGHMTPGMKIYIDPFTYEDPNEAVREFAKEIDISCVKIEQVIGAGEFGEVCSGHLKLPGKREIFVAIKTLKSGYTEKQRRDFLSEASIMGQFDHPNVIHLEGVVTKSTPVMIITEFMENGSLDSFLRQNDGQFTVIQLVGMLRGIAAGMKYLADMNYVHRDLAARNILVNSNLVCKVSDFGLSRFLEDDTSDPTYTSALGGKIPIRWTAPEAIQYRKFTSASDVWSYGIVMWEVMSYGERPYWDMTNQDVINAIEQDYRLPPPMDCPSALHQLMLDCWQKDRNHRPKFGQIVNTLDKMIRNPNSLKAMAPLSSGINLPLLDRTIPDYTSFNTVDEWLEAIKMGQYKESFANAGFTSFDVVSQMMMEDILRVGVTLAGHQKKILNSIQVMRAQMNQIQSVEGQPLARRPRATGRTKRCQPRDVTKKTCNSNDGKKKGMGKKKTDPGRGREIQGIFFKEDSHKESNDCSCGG
- EXPERIMENT_DESCRIPTION: phosphorylation enrichment, bacterial display (enrichment ratio); higher = better substrate or ligand; peptides without Tyr show the background
OBSERVATION_TYPE: phosphorylation enrichment
Lab note: record the figure alone, no unit after it.

Example entries and their recorded answers appear below.
# SEQUENCE_ENTRY, phosphorylation enrichment
data = [
    ("IGDENYGEGSS [ACO2_Y665]", 0.606),
    ("ADIETYLLEKS [MYH7_Y266]", 0.582),
    ("YDCKWYIPLTD [BCR_Y756]", 0.711),
    ("MASTSYDFCRV [BST2_Y6_YF]", 0.613),
    ("NTGDFCDLFGG [PTPN11_Y63_Y63C_YF]", 0.555),
]

-- ask Item under review: DAVKHYMQFQK [CNGA2_Y395_R399Q] . Reported phosphorylation enrichment?
-- reply 0.301

-- ask Try this sequence next: SYSGEYGSGGG [ZG16_Y30_G32S]
-- reply 0.429

-- ask Try this sequence next: FSPFDYQPCLA [TNS1_Y798_YF]
-- reply 0.715

-- ask Try this sequence next: RLEGVYGNNID [PTEN_Y46_R47G]
-- reply 0.311

-- ask Try this sequence next: PAQAAYQKVVA [HBB_Y131_V127A]
-- reply 0.67

-- ask Try this sequence next: TSESSYFKSLN [NGEF_Y288_A286S_YF]
-- reply 0.37

-- ask Try this sequence next: AELVPYFMEHH [PTPN11_Y80_Q79P_YF]
-- reply 0.602

-- ask Try this sequence next: KMTGRYEMFAR [UPB1_Y362_YF]
-- reply 0.556

-- ask Try this sequence next: EKSREYDRLFE [PIK3R1_Y463_YF]
-- reply 0.602

-- ask Try this sequence next: SASRSYSRSRS [SRRM4_Y549]
-- reply 0.521

-- ask Try this sequence next: GDEVEYMSVSF [GCLC_Y53_L55S]
-- reply 0.832

-- ask Try this sequence next: TNLVPYPRIHF [TUBA1A_Y262]
-- reply 0.422

-- ask Try this sequence next: FMYKVYSDPQP [FGFR1_Y280_C277Y]
-- reply 0.799

-- ask Try this sequence next: VSFDEYRFRSV [CFTR_Y515_YF]
-- reply 0.591

-- ask Try this sequence next: CEAIEYLESKQ [BTK_Y511_M509I]
-- reply 0.553

-- ask Try this sequence next: NGVSFYINLCQ [IGF2R_Y2025_YF]
-- reply 0.699

-- ask Try this sequence next: IVKAFYVHARA [AIPL1_Y268_R270H_YF]
-- reply 0.621

-- ask Try this sequence next: NGSKAYAYVHF [PABPC5_Y147_G146A]
-- reply 0.52

====

- TESTED_ON: FGFR1 (UniProt P11362)
- Sequence (P11362 whole entry, looked up): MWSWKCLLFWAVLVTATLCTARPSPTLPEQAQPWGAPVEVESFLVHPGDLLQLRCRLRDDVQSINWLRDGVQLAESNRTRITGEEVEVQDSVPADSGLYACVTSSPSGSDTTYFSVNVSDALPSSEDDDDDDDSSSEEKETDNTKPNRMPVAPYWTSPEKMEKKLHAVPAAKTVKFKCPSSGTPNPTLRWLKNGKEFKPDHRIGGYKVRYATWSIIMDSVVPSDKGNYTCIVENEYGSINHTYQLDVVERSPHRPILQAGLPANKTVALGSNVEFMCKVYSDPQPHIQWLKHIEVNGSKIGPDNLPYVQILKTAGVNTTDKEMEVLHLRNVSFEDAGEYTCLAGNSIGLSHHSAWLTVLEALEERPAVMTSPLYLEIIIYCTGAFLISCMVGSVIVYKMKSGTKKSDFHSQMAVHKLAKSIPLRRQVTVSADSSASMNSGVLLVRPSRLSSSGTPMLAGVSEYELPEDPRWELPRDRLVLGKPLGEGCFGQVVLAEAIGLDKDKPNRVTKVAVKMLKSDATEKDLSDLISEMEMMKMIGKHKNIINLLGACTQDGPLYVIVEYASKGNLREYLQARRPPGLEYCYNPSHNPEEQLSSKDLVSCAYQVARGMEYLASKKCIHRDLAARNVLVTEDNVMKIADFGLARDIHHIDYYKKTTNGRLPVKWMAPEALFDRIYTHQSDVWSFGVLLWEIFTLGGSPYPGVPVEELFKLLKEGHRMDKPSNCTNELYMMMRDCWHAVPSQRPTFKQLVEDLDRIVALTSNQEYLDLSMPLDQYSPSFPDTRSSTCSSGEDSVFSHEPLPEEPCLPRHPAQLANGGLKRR
- EXPERIMENT_DESCRIPTION: phosphorylation enrichment, bacterial display (enrichment ratio); higher = better substrate or ligand; peptides without Tyr show the background
Where phosphorylation enrichment equals or exceeds 0.5, the correct label is class 1; where it does not, the label is class 0.

-- ask State whether the measured phosphorylation enrichment reaches 0.5, counting equality as reaching it, for EHEALYLEADL [CENPF_Y1920]
-- reply class 1

-- ask Try this sequence next: MFRVQYNSSVD [LRFN1_Y458_Q455R_YF]
-- reply class 0

-- ask Try this sequence next: WIPIQYPIISE [NOG_Y222]
-- reply class 0

-- ask Try this sequence next: AVLQPYIFVAT [CFTR_Y1014]
-- reply class 1

-- ask Try this sequence next: DLDLTYIFPNI [PTEN_Y27_YF]
-- reply class 1

-- ask Try this sequence next: EKSREYDRLFE [PIK3R1_Y463_YF]
-- reply class 0

====

- TESTED_ON: MERTK (UniProt Q12866)
- Sequence (Q12866 whole entry, looked up): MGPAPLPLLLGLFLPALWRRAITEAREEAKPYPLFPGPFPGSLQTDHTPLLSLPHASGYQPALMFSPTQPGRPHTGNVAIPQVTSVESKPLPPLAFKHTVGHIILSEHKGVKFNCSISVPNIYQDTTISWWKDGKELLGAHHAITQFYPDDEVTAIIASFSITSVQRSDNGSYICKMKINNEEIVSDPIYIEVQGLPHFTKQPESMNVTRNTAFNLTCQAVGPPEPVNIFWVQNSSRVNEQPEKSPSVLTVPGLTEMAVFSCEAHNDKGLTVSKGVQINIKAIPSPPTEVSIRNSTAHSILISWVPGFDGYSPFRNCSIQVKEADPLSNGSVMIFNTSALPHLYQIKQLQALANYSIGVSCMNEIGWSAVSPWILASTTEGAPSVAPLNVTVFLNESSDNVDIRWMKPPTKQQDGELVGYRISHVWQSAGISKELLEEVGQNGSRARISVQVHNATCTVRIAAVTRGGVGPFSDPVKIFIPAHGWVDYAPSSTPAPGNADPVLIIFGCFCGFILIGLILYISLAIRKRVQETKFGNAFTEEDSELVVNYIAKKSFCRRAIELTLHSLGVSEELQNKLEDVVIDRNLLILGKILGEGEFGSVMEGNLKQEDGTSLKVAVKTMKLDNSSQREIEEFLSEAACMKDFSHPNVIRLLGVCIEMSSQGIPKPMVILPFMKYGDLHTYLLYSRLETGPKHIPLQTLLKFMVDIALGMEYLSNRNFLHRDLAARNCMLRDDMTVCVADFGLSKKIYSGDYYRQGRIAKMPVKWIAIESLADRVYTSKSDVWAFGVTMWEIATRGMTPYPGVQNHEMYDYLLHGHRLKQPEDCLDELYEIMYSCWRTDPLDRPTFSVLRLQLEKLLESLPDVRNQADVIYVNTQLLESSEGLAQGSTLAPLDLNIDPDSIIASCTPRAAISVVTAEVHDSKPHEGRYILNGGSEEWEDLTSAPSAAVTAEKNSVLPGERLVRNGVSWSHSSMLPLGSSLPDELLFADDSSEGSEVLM
- EXPERIMENT_DESCRIPTION: phosphorylation enrichment, bacterial display (enrichment ratio); higher = better substrate or ligand; peptides without Tyr show the background
OBSERVATION_TYPE: phosphorylation enrichment
Lab note: record the figure alone, no unit after it.

# SEQUENCE_ENTRY, OBSERVATION_TYPE, QUANTITATIVE_READOUT
rows = [
    ("FGMSTYITRED [FNDC3B_Y180_YF]", "phosphorylation enrichment", 0.437),
    ("GFFDLYGGEKF [PTPN11_Y66_D61G_YF]", "phosphorylation enrichment", 0.504),
    ("ALTDNYMYLVI [HAGH_Y61]", "phosphorylation enrichment", 3.34),
    ("NVSILYTASQA [CTNNA1_Y222_P219S]", "phosphorylation enrichment", 0.505),
    ("FFRDGHMPRQF [GSS_Y270_Y270H_YF]", "phosphorylation enrichment", 0.324),
]

-- ask Item under review: IKSSIYDNRKE [ARAP2_Y380] . Reported phosphorylation enrichment?
-- reply 0.416

-- ask Try this sequence next: STILLYHIMAW [GPR143_Y157]
-- reply 4.05

-- ask Try this sequence next: KMATAYIRSMS [BCO1_Y264_R267S]
-- reply 0.396

-- ask Try this sequence next: NVLPEYKLQAP [KCNH2_Y388_D383N]
-- reply 0.43

-- ask Try this sequence next: VHNLNYFKKTT [FGFR3_Y647_D646N_YF]
-- reply 0.311

-- ask Try this sequence next: FMKEPYIQSRF [HIPK4_Y175_V171M_YF]
-- reply 0.452

-- ask Try this sequence next: MGCVNYGAYIN [GLB1_Y485_R482C]
-- reply 0.483

-- ask Try this sequence next: KLIETCFSKNF [PLP1_Y50_Y50C_YF]
-- reply 0.405

-- ask Try this sequence next: QMVGMYASSFM [AVPR2_Y124_YF]
-- reply 2.31

-- ask Try this sequence next: HKANEYYPVVI [ADAMTS18_Y764_L769I]
-- reply 0.558

-- ask Try this sequence next: MTFQNYGQALF [FAM20C_Y279]
-- reply 0.429

-- ask Try this sequence next: DMGAQYAAASR [ARID1B_Y483_P488R]
-- reply 0.31

-- ask Try this sequence next: PEADKYRLTYA [FGG_Y300]
-- reply 0.777

-- ask Try this sequence next: PSAELYSYALP [PDGFRB_Y716_N718Y]
-- reply 16.8

-- ask Try this sequence next: RVGVDYEGRGC [PLOD1_Y675_G678R]
-- reply 0.59

-- ask Try this sequence next: PGLKGYPGLSG [COL4A2_Y306_R304K]
-- reply 0.367

-- ask Try this sequence next: QYQEKYKQVEQ [HCN4_Y531]
-- reply 0.375

-- ask Try this sequence next: LRSKQYLRNPP [SHC1_Y315_F312S]
-- reply 0.364

-- ask Try this sequence next: ILILKYPIEHG [ACTA1_Y71_T68I]
-- reply 0.424

====

- Test system: c-Src
- EXPERIMENT_DESCRIPTION: phosphorylation enrichment, bacterial display (enrichment ratio); higher = better substrate or ligand; peptides without Tyr show the background
OBSERVATION_TYPE: phosphorylation enrichment
Lab note: record the figure alone, no unit after it.

Example entries and their recorded answers appear below.
# SEQUENCE_ENTRY, phosphorylation enrichment
measured = [
    ("GFFDLYGGEKF [PTPN11_Y66_D61G_YF]", 2.7),
    ("RLGLQYSQGLV [EIF2B4_Y214]", 0.683),
    ("TSSAGYRRTPS [ABI1_Y333_G331A]", 0.444),
    ("FQEKGYNKEPR [CHRND_Y38_L42P]", 0.57),
]

-- ask Item under review: PAGSGYPAYLG [ATP6V1A_Y374_D371G] . Reported phosphorylation enrichment?
-- reply 0.417

-- ask Try this sequence next: DGFTDYAEFAK [MCFD2_Y138_I136T_YF]
-- reply 1.11

-- ask Try this sequence next: EAIAKYDLKAT [GRB2_Y7_F9L]
-- reply 0.438

-- ask Try this sequence next: SIKDKYVMALY [KCNH2_Y611_T613M]
-- reply 0.422

-- ask Try this sequence next: GRLFAYPDTHC [CAT_Y358_R363C]
-- reply 0.403
